System: anesthetized monkeys
Experiment: In vivo neuromuscular block and cardiovascular side effects, monkey (Example 8, Table 6)
Conditions: intravenous dose causing 50% neuromuscular block
measurement-type: ED50 (mg/kg)

INSERT INTO results (compound, unit_label, observed_value) VALUES
  ('CC(=O)Oc1ccc(C[N+]2(C)C3CCCC2CC(OC(=O)CCCCCCC(=O)OC2CC4CCCC(C2)[N+]4(C)Cc2ccc(OC(C)=O)c(OC(C)=O)c2)C3)cc1OC(C)=O.[Br-].[Br-] (stereo not shown)', 'mg/kg', 0.2),
  ('COc1cc(C[N+]2(C)C3CCC2CC(OC(=O)C2C4C=CC(C4)C2C(=O)OC2CC4CCC(C2)[N+]4(C)Cc2ccc(OC(C)=O)c(OC)c2)C3)ccc1OC(C)=O.[Br-].[Br-] (stereo not shown)', 'mg/kg', 0.055),
  ('CC(=O)Oc1ccc(C[N+]2(C)C3CCCC2CC(OC(=O)C2CCC2C(=O)OC2CC4CCCC(C2)[N+]4(C)Cc2ccc(OC(C)=O)c(OC(C)=O)c2)C3)cc1OC(C)=O.[Br-].[Br-] (stereo not shown)', 'mg/kg', 0.086),
  ('CC(=O)Oc1ccc(C[N+]2(C)C3CCCC2CC(OC(=O)CCCCCC(=O)OC2CC4CCCC(C2)[N+]4(C)Cc2ccc(OC(C)=O)c(OC(C)=O)c2)C3)cc1OC(C)=O.[Br-].[Br-] (stereo not shown)', 'mg/kg', 0.15);

----------
Tested on: anesthetized juvenile pigs
Experiment: animal or person
Assay type: in vivo
Conditions: pig; time to 80-85% neuromuscular block
measurement-type: Onset (min)

INSERT INTO measurements (compound, observed_value) VALUES
  ('CCC(=O)Oc1ccc(C[N+]2(C)C3CCCC2CC(OC(=O)CCCCC(=O)OC2CC4CCCC(C2)[N+]4(C)Cc2ccc(OC(=O)CC)c(OC(=O)CC)c2)C3)cc1OC(=O)CC.[Br-].[Br-] (stereo not shown)', 0.45),
  ('CC(=O)Oc1ccc(C[N+]2(C)C3CCC2CC(OC(=O)C2C4C=CC(C4)C2C(=O)OC2CC4CCC(C2)[N+]4(C)Cc2ccc(OC(C)=O)c(OC(C)=O)c2)C3)cc1OC(C)=O.[Br-].[Br-] (stereo not drawn) [bis[N-(3,4-diacetoxybenzyl)tropanium-3β-yl]trans-3,6-endomet]', 1.1),
  ('CC(=O)Oc1ccc(C[N+]2(C)C3CCCC2CC(OC(=O)C2CCC2C(=O)OC2CC4CCCC(C2)[N+]4(C)Cc2ccc(OC(C)=O)c(OC(C)=O)c2)C3)cc1OC(C)=O.[Br-].[Br-] (stereo not shown)', 0.8),
  ('CC(=O)Oc1ccc(C[N+]2(C)[C@@H]3CC[C@H]2C[C@@H](OC(=O)C2CCC2C(=O)O[C@H]2C[C@H]4CC[C@@H](C2)[N+]4(C)Cc2ccc(OC(C)=O)c(OC(C)=O)c2)C3)cc1OC(C)=O.[Br-].[Br-] (stereo partly shown)', 0.68),
  ('COc1cc(C[N+]2(C)[C@@H]3CC[C@H]2C[C@@H](OC(=O)CCCCCCCCCC(=O)O[C@H]2C[C@H]4CC[C@@H](C2)[N+]4(C)Cc2cc(OC)c(OC)c(OC)c2)C3)cc(OC)c1OC.[Br-].[Br-] (stereo partly shown)', 1.5),
  ('COc1cc(C[N+]2(C)C3CCC2CC(OC(=O)C2C4C=CC(C4)C2C(=O)OC2CC4CCC(C2)[N+]4(C)Cc2ccc(OC(C)=O)c(OC)c2)C3)ccc1OC(C)=O.[Br-].[Br-] (stereo not shown)', 0.6),
  ('CCC(=O)Oc1ccc(C[N+]2(C)C3CCCC2CC(OC(=O)CCCC(=O)OC2CC4CCCC(C2)[N+]4(C)Cc2ccc(OC(=O)CC)c(OC(=O)CC)c2)C3)cc1OC(=O)CC.[Br-].[Br-] (stereo not shown)', 0.5),
  ('CCC(=O)Oc1ccc(C[N+]2(C)C3CCCC2CC(OC(=O)CCCCCC(=O)OC2CC4CCCC(C2)[N+]4(C)Cc2ccc(OC(=O)CC)c(OC(=O)CC)c2)C3)cc1OC(=O)CC.[Br-].[Br-] (stereo not shown)', 0.5),
  ('CCCCC[N+]1(C)[C@@H]2CC[C@H]1C[C@@H](OC(=O)CCCCCCCCC(=O)O[C@H]1C[C@H]3CC[C@@H](C1)[N+]3(C)CCCCC)C2.[Br-].[Br-] (stereo partly shown) [reference compound]', 2.00),
  ('C=CC[N+]1([C@H]2C[C@H]3[C@@H]4CC[C@H]5C[C@H](O)[C@@H](N6CCOCC6)C[C@]5(C)[C@H]4CC[C@]3(C)[C@H]2OC(C)=O)CCCC1 [Rocuronium, reference compound]', 1.5);
